IC50 values, listed per item
Test system: KATO III (FGFR2 amp)
Test: In vitro growth inhibition of KATO III tumor cells (MTT/CCK8)
Type: cell-based, Human
Conditions: Homo sapiens, KATO III; in vitro growth inhibition (or induction of apoptosis), cells cultured 3 to 5 days, MTT (CCK8); read-out: IC50 KATO III (FGFR2 amp)
Express it in nM; write the number only.

Example results:
COCCOc1cc2nccc(Oc3ccc(NC(=O)Nc4cc(C(C)(C)C)n[nH]4)c(F)c3)c2cc1NC(C)=O ... 0.1
CC(C)(C)c1cc(NC(=O)Nc2ccc(Oc3ccnc4cc(OCCCN5CCOCC5)c(C(N)=O)cc34)cc2Cl)n(C2CCCC2)n1 ... 23.7
COc1cc(Oc2ccnc3cc(OC)c(C(N)=O)cc23)ccc1NC(=O)Nc1cc(C(C)(C)C)on1 ... 9.76

Could you tell me which IC50 is on file for COc1cc2nccc(Oc3ccc(NC(=O)Nc4cc(C(C)(C)C)nn4C)c(C)c3C)c2cc1C(N)=O ? 2.98

###

System: H1581 (FGFR1 amp)
Assay: In vitro growth inhibition of H1581 tumor cells (MTT/CCK8)
Format: cell-based, Human
Conditions: Homo sapiens, NCI-H1581; in vitro growth inhibition (or induction of apoptosis), cells cultured 3 to 5 days, MTT (CCK8); read-out: IC50 H1581 (FGFR1 amp)
IC50 values, listed per item
Express it in nM; write the number only.

Example results:
CN1CCN(CCCOc2cc3nccc(Oc4ccc(NC(=O)Nc5cc(C(C)(C)C)n[nH]5)c(Cl)c4)c3cc2C(N)=O)CC1 ... 3.61
COc1cc2nccc(Oc3ccc(NC(=O)Nc4cc(C(C)(C)C)n[nH]4)c(Cl)c3Cl)c2cc1C(N)=O ... 4.73
COc1cc2nccc(Oc3ccc(N(C)C(=O)Nc4cc(C(C)(C)C)on4)cc3)c2cc1C(N)=O ... 270

Could you tell me which IC50 is on file for CCC(=O)Nc1cc2c(Oc3ccc(NC(=O)Nc4cc(C(C)(C)C)n[nH]4)c(Cl)c3)ccnc2cc1OC ? 8.64

###

Tested on: KATO III (FGFR2 amp)
Assay: In vitro growth inhibition of KATO III tumor cells (MTT/CCK8)
Assay type: cell-based, Human
Settings: Homo sapiens, KATO III; in vitro growth inhibition (or induction of apoptosis), cells cultured 3 to 5 days, MTT (CCK8); read-out: IC50 KATO III (FGFR2 amp)
Measured parameter: pIC50
Please treat pIC50 as minus the base-10 logarithm of the molar concentration.

Example results:
CC(=O)N1CCN(CCCOc2cc3nccc(Oc4ccc(NC(=O)Nc5cc(C(C)(C)C)n[nH]5)c(Cl)c4)c3cc2C(N)=O)CC1 ... 8.90
COc1cc2nccc(Oc3ccc(NC(=O)Nc4cc(C(C)(C)C)on4)c(Br)c3)c2cc1C(N)=O ... 8.84
CNC(=O)c1cc2c(Oc3ccc(NC(=O)Nc4cc(C(C)(C)C)n[nH]4)c(C(F)(F)F)c3)ccnc2cc1OC ... 8.94
COc1cc2nccc(Oc3ccc(NC(=O)Nc4cc(C(C)(C)C)nn4C4CCCC4)c(Cl)c3)c2cc1C(N)=O ... 8.79
COCCOc1cc2nccc(Oc3ccc(NC(=O)Nc4cc(C(C)(C)C)nn4C)cc3Cl)c2cc1NC(C)=O ... 9.66
COCCOc1cc2nccc(Oc3ccc(NC(=O)Nc4cc(C(C)(C)C)nn4CCN4CCOCC4)cc3Cl)c2cc1NC(C)=O ... 8.92
COCCOc1cc2nccc(Oc3ccc(NC(=O)Nc4cc(C(C)(C)C)n[nH]4)c(Cl)c3)c2cc1C(N)=O ... 9.01
COCCCOc1cc2nccc(Oc3ccc(NC(=O)Nc4cc(C(C)(C)C)n[nH]4)c(Cl)c3)c2cc1NC(C)=O ... 9.47
CN(C)CCOc1cc2nccc(Oc3ccc(NC(=O)Nc4cc(C(C)(C)C)n[nH]4)c(Cl)c3)c2cc1C(N)=O ... 8.23
CNC(=O)c1cc2c(Oc3ccc(NC(=O)Nc4cc(C(C)(C)C)nn4C)c(Cl)c3)ccnc2cc1OCCOC ... 9.96

Could you tell me which pIC50 is on file for CNC(=O)c1cc2c(Oc3ccc(NC(=O)Nc4cc(C(C)(C)C)nn4C)c(Cl)c3Cl)ccnc2cc1OCCOC ? 9.44

Could you tell me which pIC50 is on file for C=CC(=O)n1nc(C(C)(C)C)cc1NC(=O)Nc1ccc(Oc2ccnc3cc(OC)c(C(N)=O)cc23)cc1Cl ? 9.14
